Tested on: Yap1 mRNA
Assay: Antisense inhibition of human Yap1 in SNU-449 cells by modified oligonucleotides, single dose (Example 5, RTS36584)
Format: cell-based
Settings: Table 49; Yap1 mRNA level relative to untreated control; modified oligonucleotides targeting SEQ ID NO.: 1 and 2
Strand notation (5' to 3'): a small letter for the sugar, then the base; units joined by * are phosphorothioate-linked, units joined directly phosphodiester-linked; [ ] holds rarer units or linkages, { } end groups; capitals alone tell only the bases. e = 2'-O-(2-methoxyethyl) (MOE); k = constrained ethyl (cEt); [5mC] = 5-methylcytosine; d = 2'-deoxy (DNA)
Decide by YAP1 (% UT): equal to or exceeding 40 % UT means Fulfilled, less means Not fulfilled.

1198567 (antisense k[5mC]*kT*kT*dT*dT*dA*d[5mC]*dA*dT*dT*dA*dG*kG*kA*kA*e[5mC]) [Compound 1198567]; Fulfilled
1198573 (antisense kT*kT*kA*dA*dG*d[5mC]*dA*d[5mC]*dT*dT*dT*dT*kA*k[5mC]*kA*eT) [Compound 1198573]; Fulfilled
1095547 (antisense kA*k[5mC]*kT*dG*dA*dG*dG*dT*dA*dT*dA*dA*k[5mC]*eT*kG*eG) [Compound 1095547]; Fulfilled
1198554 (antisense kT*kT*kA*dG*dA*dG*dT*dA*dT*dG*dT*dG*kG*k[5mC]*kA*eA) [Compound 1198554]; Not fulfilled

Switching to the query record.
stdin: Decide: is the reported value of YAP1 (% UT) for 1198544 (antisense kA*kA*kT*dT*dG*dT*d[5mC]*dT*d[5mC]*dA*dT*dG*k[5mC]*k[5mC]*kT*eT) [Compound 1198544] equal to or greater than 40 % UT?
stdout: Not fulfilled

---

Assay: Tolerability in Balb/c mice, body and organ weights (Example 14)
Type: in vivo
Settings: male Balb/c mice, 50 mg/kg s.c. twice a week for four weeks (8 treatments), end of study (day 27)
Strand notation (5' to 3'): a small letter for the sugar, then the base; units joined by * are phosphorothioate-linked, units joined directly phosphodiester-linked; [ ] holds rarer units or linkages, { } end groups; capitals alone tell only the bases. k = constrained ethyl (cEt); [5mC] = 5-methylcytosine; d = 2'-deoxy (DNA)
READOUT TYPE: Liver weight (g)
Answer format: numeric, g implied, no suffix.

Below: 2 substances and their reported Liver weight.
958534 (kT*kT*k[5mC]*dA*dG*d[5mC]*dA*dT*dA*dG*dA*dA*dG*kT*kA*kG; antisense) [compound 958534]; 1.81
958739 (kA*kG*k[5mC]*dA*dA*dT*dA*dG*dA*dG*dT*dA*dA*k[5mC]*k[5mC]*kA; antisense) [compound 958739]; 1.58

From here, focus on the item given below.
stdin: Please report the recorded Liver weight for 958589 (kG*kT*kA*dA*dA*dG*dG*dA*dA*dG*dA*dT*d[5mC]*kT*k[5mC]*k[5mC]; antisense) [compound 958589] .
stdout: 1.40

---

Property: TBIL; scope: individual substances
Test: Cynomolgus monkey tolerability, kidney and liver function markers (Example 34)
Conditions: cynomolgus monkeys, 35 mg/kg subcutaneously, day 44
Answer format: numeric, mg/dL implied, no suffix.

Below: 3 substances and their reported TBIL.
1198605 (GTAATATTGCAATCTG; modified gapmer, further chemistry not given here) [compound 1198605]; 0.2
1197270 (TTAAAGTGTATGTCAG; cEt gapmer with 2'-OMe nucleoside, phosphorothioate, further chemistry not given here) [compound 1197270]; 0.2
1198623 (CTAAGTAAGGTTTCCC; modified gapmer, further chemistry not given here) [compound 1198623]; 0.2

stdin: Please report the recorded TBIL for 1076453 (GTAATATTGCAATCTG; 3-10-3 cEt gapmer, further chemistry not given here) [compound 1076453] .
stdout: 0.2

stdin: Please report the recorded TBIL for 1198728 (TATTAGAGTATGTGGC; modified gapmer, further chemistry not given here) [compound 1198728] .
stdout: 0.3

stdin: Please report the recorded TBIL for 1198440 (AAGTGTATGTCAGAAG; cEt, 2'-MOE, 5-methylcytosine, phosphorothioate modifications, further chemistry not given here) [compound 1198440] .
stdout: 0.2

---

Property: YAP1 (% UTC); scope: individual substances
Test system: Yap1 mRNA
Experiment: Antisense inhibition of human Yap1 in A-431 cells by cEt gapmers, single dose (Example 3, RTS36584)
Type: cell-based
Conditions: Table 29; Yap1 mRNA as percent of untreated control; 3-10-3 cEt gapmers targeting SEQ ID NO.: 1, and 2
Strand notation (5' to 3'): a small letter for the sugar, then the base; units joined by * are phosphorothioate-linked, units joined directly phosphodiester-linked; [ ] holds rarer units or linkages, { } end groups; capitals alone tell only the bases. k = constrained ethyl (cEt); [5mC] = 5-methylcytosine; d = 2'-deoxy (DNA)
Answer format: numeric, % UTC implied, no suffix.

stdin: Please report the recorded YAP1 (% UTC) for 1074479 (k[5mC]*kA*kT*dT*dT*dG*d[5mC]*d[5mC]*dT*dA*dG*dG*dT*kT*k[5mC]*k[5mC]; antisense) [compound 1074479] .
stdout: 2

stdin: Please report the recorded YAP1 (% UTC) for 1075887 (antisense kT*kA*kT*dT*dA*d[5mC]*dT*dT*dG*dA*dT*dT*dG*kA*k[5mC]*kA) [compound 1075887] .
stdout: 10

stdin: Please report the recorded YAP1 (% UTC) for 1074383 (kT*k[5mC]*kA*dA*dG*dG*dT*dA*dG*dT*d[5mC]*dT*dG*kG*kG*kA; antisense) [compound 1074383] .
stdout: 40

---

System: Yap1 mRNA
Test: Antisense inhibition of human Yap1 in A-431 cells by cEt gapmers, single dose (Example 4, RTS4814)
Assay type: cell-based
Conditions: Table 15; A-431 cells, 5,000 cells per well, free uptake, 2,000 nM, approximately 48 hours; RTS4814; normalized to RIBOGREEN; Yap1 mRNA relative to untreated control; * = targets amplicon region of primer probe set
Strand notation (5' to 3'): a small letter for the sugar, then the base; units joined by * are phosphorothioate-linked, units joined directly phosphodiester-linked; [ ] holds rarer units or linkages, { } end groups; capitals alone tell only the bases. k = constrained ethyl (cEt); [5mC] = 5-methylcytosine; d = 2'-deoxy (DNA)
READOUT TYPE: YAP1 (% UTC)
Answer format: numeric, % UTC implied, no suffix.

1074561 (antisense kA*kA*kT*dT*d[5mC]*d[5mC]*dA*dA*dT*d[5mC]*dG*dA*dG*kA*k[5mC]*kT) [Compound 1074561]; 10
1074241 (antisense kG*kA*kT*dG*dT*d[5mC]*dT*dT*dT*dG*d[5mC]*d[5mC]*dA*kT*k[5mC]*kT) [Compound 1074241]; 72
1076001 (kA*k[5mC]*kT*d[5mC]*dA*dA*dG*dG*dA*dA*d[5mC]*d[5mC]*dA*kT*kT*kT; antisense) [Compound 1076001]; 24
1075489 (antisense kG*kA*kG*d[5mC]*dA*dA*d[5mC]*dA*dA*d[5mC]*dT*dA*dT*kG*kA*kG) [Compound 1075489]; 51
1076065 (k[5mC]*kT*kT*dT*dA*dG*dT*dA*dA*d[5mC]*dA*d[5mC]*dG*kA*kA*kT; antisense) [Compound 1076065]; 36

stdin: Please report the recorded YAP1 (% UTC) for 1075777 (kT*kA*kT*dG*dT*dG*dA*dT*dA*dT*dG*dG*dA*kT*kT*k[5mC]; antisense) [Compound 1075777] .
stdout: 12

stdin: Please report the recorded YAP1 (% UTC) for 1074977 (antisense k[5mC]*kT*kT*dG*dT*dT*d[5mC]*dT*dA*dT*dT*dG*dG*kA*kA*kG) [Compound 1074977] .
stdout: 94

---

Property: Yap1 mRNA, % UTC; scope: individual substances
System: Yap1 mRNA
Assay: Dose-dependent inhibition of human Yap1 in A-431 cells (Example 7, 10,000 cells per well, RTS36584)
Type: cell-based
Settings: Table 56, 15.6 nM, free uptake, A-431 cells 10,000 cells per well, 48 hours
Strand notation (5' to 3'): a small letter for the sugar, then the base; units joined by * are phosphorothioate-linked, units joined directly phosphodiester-linked; [ ] holds rarer units or linkages, { } end groups; capitals alone tell only the bases. k = constrained ethyl (cEt); [5mC] = 5-methylcytosine; d = 2'-deoxy (DNA)
Answer with the number, then the unit.

stdin: Please report the recorded Yap1 mRNA, % UTC for 958361 (antisense kG*k[5mC]*kT*d[5mC]*dG*dA*dA*d[5mC]*dA*dT*dG*d[5mC]*dT*kG*kT*kG) [compound 958361] .
stdout: 100 % UTC

stdin: Please report the recorded Yap1 mRNA, % UTC for 958377 (antisense kG*k[5mC]*kT*dG*dG*dG*dA*dT*dT*dG*dA*dT*dA*kT*kT*k[5mC]) [compound 958377] .
stdout: 90 % UTC

stdin: Please report the recorded Yap1 mRNA, % UTC for 958369 (antisense kT*kT*kA*dT*d[5mC]*dT*dA*dG*d[5mC]*dT*dT*dG*dG*kT*kG*kG) [compound 958369] .
stdout: 107 % UTC

stdin: Please report the recorded Yap1 mRNA, % UTC for 958403 (antisense k[5mC]*kA*kG*dT*dT*dT*dA*dT*dG*dT*dA*dG*dT*kA*kG*kT) [compound 958403] .
stdout: 94 % UTC

stdin: Please report the recorded Yap1 mRNA, % UTC for 958370 (antisense k[5mC]*kT*kT*dT*dA*dT*d[5mC]*dT*dA*dG*d[5mC]*dT*dT*kG*kG*kT) [compound 958370] .
stdout: 98 % UTC

stdin: Please report the recorded Yap1 mRNA, % UTC for 958726 (k[5mC]*kT*kG*dT*d[5mC]*dA*dG*dT*dT*dA*dT*d[5mC]*d[5mC]*kT*kA*kT; antisense) [compound 958726] .
stdout: 99 % UTC

stdin: Please report the recorded Yap1 mRNA, % UTC for 958496 (k[5mC]*k[5mC]*kT*dT*dA*dT*dA*dA*dG*d[5mC]*dT*d[5mC]*d[5mC]*kT*kA*kA; antisense) [compound 958496] .
stdout: 86 % UTC
